Test: Kinetic solubility in SGF, FeSSIF, FaSSIF and pure water (HPLC)
Assay type: physicochemical
Details: FeSSIF (fed state simulated intestinal fluid), pH 5, fessif, thermodynamic from solid, FeSSIF (pH=5.0), 4 h
Assay Metric: solubility kinetic at 4 h
Field: value (include unit after the number)

Q: Record request: solubility kinetic at 4 h value, item O=C(O)CNC(=O)C1C(=O)N(C2CCCCC2)C(=O)N(C2CCCCC2)C1=O [Form CS1]
A: 190 µg/mL

----------
Test: Kinetic solubility in SGF, FeSSIF, FaSSIF and pure water (HPLC)
Format: physicochemical
Conditions: SGF (simulated gastric fluid), pH 1.8, simulated gastric fluid, thermodynamic from solid, SGF (pH=1.8), 1 h
Assay Metric: solubility kinetic at 1 h (µg/mL)
Use µg/mL as the unit, but write only the number.

Q: Record request: solubility kinetic at 1 h value, item O=C(O)CNC(=O)C1C(=O)N(C2CCCCC2)C(=O)N(C2CCCCC2)C1=O [Form CS1]
A: 3.1

----------
Assay: Kinetic solubility in SGF, FeSSIF, FaSSIF and pure water (HPLC)
Assay type: physicochemical
Details: FeSSIF (fed state simulated intestinal fluid), pH 5, fessif, thermodynamic from solid, FeSSIF (pH=5.0), 24 h
Assay Metric: solubility kinetic at 24 h (µg/mL)
Use µg/mL as the unit, but write only the number.

Q: Record request: solubility kinetic at 24 h value, item O=C(O)CNC(=O)C1C(=O)N(C2CCCCC2)C(=O)N(C2CCCCC2)C1=O [Form CS1]
A: 160

----------
Assay: Kinetic solubility in SGF, FeSSIF, FaSSIF and pure water (HPLC)
Type: physicochemical
Settings: FaSSIF (fasted state simulated intestinal fluid), pH 6.5, fassif, thermodynamic from solid, FaSSIF (pH=6.5), 1 h
Assay Metric: solubility kinetic at 1 h (µg/mL)
Use µg/mL as the unit, but write only the number.

Q: Record request: solubility kinetic at 1 h value, item O=C(O)CNC(=O)C1C(=O)N(C2CCCCC2)C(=O)N(C2CCCCC2)C1=O [Form CS1]
A: 63

----------
Test: Kinetic solubility in SGF, FeSSIF, FaSSIF and pure water (HPLC)
Type: physicochemical
Conditions: SGF (simulated gastric fluid), pH 1.8, simulated gastric fluid, thermodynamic from solid, SGF (pH=1.8), 4 h
Assay Metric: solubility kinetic at 4 h (µg/mL)
Use µg/mL as the unit, but write only the number.

Q: Record request: solubility kinetic at 4 h value, item O=C(O)CNC(=O)C1C(=O)N(C2CCCCC2)C(=O)N(C2CCCCC2)C1=O [Form CS1]
A: 3.1
